- target-or-test-system: CB1 receptor (hCB1) (Homo sapiens)
- Construct: expressed in transfected cells; host or cells: Xenopus laevis oocytes (cRNA injection)
- Sequence (P21554 whole entry): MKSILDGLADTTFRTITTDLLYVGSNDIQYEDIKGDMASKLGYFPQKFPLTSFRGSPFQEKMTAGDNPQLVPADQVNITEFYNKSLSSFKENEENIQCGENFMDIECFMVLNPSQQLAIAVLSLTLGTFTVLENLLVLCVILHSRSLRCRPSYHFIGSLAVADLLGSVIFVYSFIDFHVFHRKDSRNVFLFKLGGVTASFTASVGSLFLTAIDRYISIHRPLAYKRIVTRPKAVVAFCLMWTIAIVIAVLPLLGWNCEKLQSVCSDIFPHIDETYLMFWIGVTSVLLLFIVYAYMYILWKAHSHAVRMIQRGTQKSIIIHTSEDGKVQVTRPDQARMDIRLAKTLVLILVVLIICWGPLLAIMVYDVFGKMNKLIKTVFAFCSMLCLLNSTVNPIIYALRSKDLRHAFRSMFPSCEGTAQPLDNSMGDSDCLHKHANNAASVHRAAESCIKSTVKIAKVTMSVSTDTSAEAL
- measurement-description: Two-electrode voltage-clamp, CB1-GIRK1/GIRK2-RGS4 coupling system expressed in Xenopus oocytes
- Format: cell-based
- experimental-conditions: IC50 of blocking CB1 receptor activated by WIN55,212-2, 0.03 μM WIN + OS
reported-property: IC50 (nM)
Numbers only, in nM.

Using the record for `CCCCCCCC/C=C\CCCCCCCC(=O)NCCc1c[nH]c2ccc(O)cc12` , report its IC50.
2400

---

- target-or-test-system: CB2 receptor (hCB2) (Homo sapiens, UniProt P34972)
- Construct: expressed in transfected cells; host or cells: Xenopus laevis oocytes (cRNA injection)
- Sequence (P34972 whole entry): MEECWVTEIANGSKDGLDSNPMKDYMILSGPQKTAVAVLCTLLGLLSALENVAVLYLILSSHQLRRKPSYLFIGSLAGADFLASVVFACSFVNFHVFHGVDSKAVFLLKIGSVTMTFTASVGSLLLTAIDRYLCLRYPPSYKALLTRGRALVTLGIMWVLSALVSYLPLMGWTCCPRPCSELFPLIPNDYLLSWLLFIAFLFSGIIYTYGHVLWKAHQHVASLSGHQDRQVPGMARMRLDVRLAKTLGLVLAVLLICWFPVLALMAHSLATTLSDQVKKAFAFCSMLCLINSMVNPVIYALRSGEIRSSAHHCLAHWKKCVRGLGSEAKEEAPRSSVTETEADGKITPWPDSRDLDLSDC
- measurement-description: Two-electrode voltage-clamp, CB2-GIRK1/GIRK2-RGS4 coupling system expressed in Xenopus oocytes
- Format: cell-based
- experimental-conditions: IC50 of blocking CB2 receptor activated by WIN55,212-2, 0.03 μM WIN + OS
reported-property: pIC50
Give bare numbers, as −log10 of the molar value.

Provide the documented pIC50 with CB2 receptor (hCB2) (Homo sapiens, UniProt P34972) as the system for `CCCCCCCC/C=C\CCCCCCCC(=O)NCCc1c[nH]c2ccc(O)cc12`
4.83
